Reference for the values: PubChem BioAssay (NCI)

List of TGI values.
- Tested on: SF-268 CNS
- procedureSummary: NCI tumour cell line growth inhibition, 48 h

>>> print(df.to_string())
                                   molecule  targetofassay  observed
0  O=C1C(Br)=C(c2ccccc2)C(c2ccccc2)=C1c1ccccc1     SF-268 CNS   7.52 µM
1  COc1ccc(/C(Cl)=C(\C=O)c2cc(OC)c(OC)c(OC)c2)cc1OC     SF-268 CNS  > 100 µM
2  CC[N+](CC)(CC)Cc1cn(S(=O)(=O)c2ccccc2)c2ccccc12     SF-268 CNS  > 100 µM
3          Cn1c(=S)[nH]c2c(Cl)cc(Cl)cc2c1=O     SF-268 CNS  > 100 µM
4             CO/C=C/c1cc2c(cc1C(OC)OC)OCO2     SF-268 CNS  > 100 µM

Inquiry: // lookup TGI for [N-]=[N+]=Nc1cc(=O)n(-c2ccccc2)c(=O)n1-c1ccccc1
Reply text: > 100 µM

Inquiry: // lookup TGI for C=CCOCCCC(=O)C(=[N+]=[N-])C(=O)OC
Reply text: > 100 µM

Inquiry: // lookup TGI for N#Cc1c(C(N)=O)ncn1Cc1ccccc1
Reply text: > 100 µM

Inquiry: // lookup TGI for Cc1nc(Cl)c(C)c(Cl)n1
Reply text: > 100 µM

Inquiry: // lookup TGI for CC1(C)CC2=NOS3=C2C(=NO3)C1c1ccccn1 (stereo unspecified)
Reply text: > 100 µM

Inquiry: // lookup TGI for C=C(CO)[C@H]1CC/C(C)=C/CC/C(C)=C/C/C=C(\C)[C@H](O)C1
Reply text: 51.4 µM

Inquiry: // lookup TGI for O=C1NC(=O)[C@H]2C3C=CC([C@@H]12)[C@@H]1C(=O)NC(=O)[C@H]31
Reply text: > 100 µM

Inquiry: // lookup TGI for CCOC(=O)c1ccc2[nH]c(Cc3[nH]c4ccc(C(=O)OCC)cc4c3C)c(C)c2c1
Reply text: 15.4 µM
